Test system: TK-10 renal
Assay: NCI-60 one-dose screen, 48 h (100 = growth as untreated, 0 = no growth, -100 = all killed)
Settings: 10 µM unless noted
Compounds without any hit were thinned out: in the full panel of roughly 83,000, 20% have a hit. The source made the active and inactive calls. How the source made its calls: active means growth percent below 10; inactive means the rest.
For each record, write down the corresponding growth.

Please look up its growth: COc1cc2oc(-c3cccc(NC(=O)c4cc(N)ccc4Cl)c3)cc(=O)c2c(OC)c1OC 98.3% (inactive)

Please look up its growth: O=c1c2ccccc2nc(COc2ccccc2)n1NS(=O)(=O)c1ccc(Cl)cc1 153% (inactive)

Please look up its growth: CNC(=O)c1c(NC(=O)c2cccc(C(F)(F)F)c2F)sc2c1CCC(=O)C2 34.6% (inactive)

Please look up its growth: COc1ccc2[nH]cc(-c3csc4nc(-c5ccccc5)cn34)c2c1 75.6% (inactive)

Please look up its growth: CCC(NC(c1cc2cccc3ccc4cccc1c4c32)c1nnnn1C(C)(C)C)C1CCCCC1 (centres undefined) 80.6% (inactive)

Please look up its growth: CC(C)(C)n1nnnc1C(Nc1cccc2c1OCO2)c1cc2cccc3ccc4cccc1c4c32 (centres undefined) 116% (inactive)

Please look up its growth: COc1ccc(Cn2cc3c(c2-c2cc(OC)c(OC)c(OC)c2)CCc2c(CN4CCCC4)noc2-3)cc1 69.6% (inactive)

Please look up its growth: Clc1ccc(N/N=c2/oc3ccccc3cc2-c2cc3ccccc3[nH]2)cc1 145% (inactive)

Please look up its growth: CC(=O)N(C)C1CCc2c(sc(NC(=O)c3ccc(C(C)(C)C)cc3)c2C(N)=O)C1 (centres undefined) 106% (inactive)

Cited source for all entries: PubChem BioAssay (NCI)
